System: OVCAR-3
Experiment: NCI tumour cell line growth inhibition, 48 h
Active and inactive are the calls of the source. Cut-off read from the data, not from the text of the source: active = GI50 up to about 1.1 µM and inactive = higher.
Could you please report measured GI50 for the items listed next?

Give the measured GI50 of `COC(=O)[C@]1(c2ccc(N(C)C)cc2OC)C[C@@H]2CCCN(CCc3c1[nH]c1ccccc31)C2` .
18.5 µM (inactive)

What about `[N-]=[N+]=N[C@H]1C[C@@H](CO)O[C@H]1n1cnc2c(N)ncnc21` ?
> 100 µM (inactive)

Try this compound next: `Clc1ncnc2c1ncn2CCCCCCCCCCCCn1cnc2c(Cl)ncnc21`
11.2 µM (inactive)

Same read-out for CCOC(=O)C(Cc1ccc([N+](=O)[O-])cc1)NC(=O)CC1c2ccccc2-c2ccccc21 (stereo not given) ?
> 100 µM (inactive)

Next compound up: Cc1cc(C)c2c(=O)n(CN3CC4Nc5ccccc5C4C3)sc2n1 (stereo not given)
33.5 µM (inactive)

Cool, now O=NN(CCF)C(=O)NC1CC2CCC1C2 (stereo not given)
> 100 µM (inactive)

Repeat with COC(=O)c1ccccc1CC1Cc2cccc(C)c2C1=O (stereo not given)
33.7 µM (inactive)

Now the same for `O=[N+]([O-])C(=C/c1cccc2ccccc12)/C(=C\c1cccc2ccccc12)[N+](=O)[O-]`
4.02 µM (inactive)

`COc1cc([C@@H]2c3cc4c(cc3[C@@H](Nc3ccc(NC(=O)c5cc([N+](=O)[O-])cn5C)cc3)[C@H]3COC(=O)[C@H]23)OCO4)cc(OC)c1O` , same question.
0.449 µM (active)

Same question for `O=C(c1ccccc1O)c1cc(-c2ncc3c(=O)c4ccccc4oc3n2)c(-c2ccccc2O)[nH]c1=O` please.
24 µM (inactive)

Further, for `O=C(NN=C(c1ccccc1)c1ccccc1)/C(O)=C/C(=O)c1ccc(Cl)cc1` ?
30.8 µM (inactive)

Now consider `CCOC(=O)n1ccc2c(C(=O)OC)c(C(=O)OC)cc(/C(=C/C(=O)OC)C(=O)OC)c21` and answer again.
> 100 µM (inactive)

And what about the compound COc1ccc(C[C@@H]2OC3(C=CC(=O)CC3Sc3ccccc3)O[C@H]2Cc2ccc(OC)cc2)cc1 (stereo not given in full) ?
1.64 µM (inactive)

Entry to check: `Cn1c2c(c3c(=O)[nH]ncc31)CCCc1ccccc1-2`
26.8 µM (inactive)

Input `Nc1ccc(-c2nc3ccccc3s2)cc1`
13.3 µM (inactive)

// query: COc1cc(CC(C)N)ccc1O (stereo not given)
> 100 µM (inactive)

// same read-out, input: `Clc1ccc(CCn2cncn2)cc1`
> 100 µM (inactive)

Next compound up: `CCOC(=O)Cc1cc(=O)oc2cc(O)ccc12`
> 100 µM (inactive)

Entry to check: `O=C(/C=C/c1ccccc1O)/C=C/c1ccccc1O`
0.352 µM (active)

Same thing, different compound: `Cc1cc(C)nc(NS(=O)(=O)c2ccc(Nc3c4ccc(Cl)cc4nc4c(C(=O)Nc5ccc(S(=O)(=O)N=C(N)N)cc5)cccc34)cc2)n1`
96.6 µM (inactive)

Note, next up: C/C(=N\O)C1CC2C=C(C#N)C1N(Cc1ccccc1)C2 (stereo not given)
> 100 µM (inactive)

Okay, and `Cc1ccc(/C(Cl)=C/C=C(C#N)C#N)cc1` ?
1.93 µM (inactive)

Then C/C(=N\NC(=N)N)C(CN1CCCCC1)C(c1ccccc1)c1c(O)c2ccccc2oc1=O (stereo not given) ?
> 100 µM (inactive)

What do you get for O=C1c2ccccc2C2(O)NC(=S)N(c3ccccc3)C12O (stereo not given) ?
> 100 µM (inactive)

Also, COC(CN(C(=O)c1ccccc1)C1CCC2(SCCS2)c2[nH]c3ccccc3c21)OC (stereo not given) please.
25.8 µM (inactive)

Source listed as ChEMBL document CHEMBL1201862.
